Entry source: patent US20100272750A1

Molecular target: HLA A2302 (human)
Experiment: 125I-probe competition, purified HLA
Give measured pIC50 for each item. Keep answers brief.
One number for each entry, as −log10 of the molar value.

Look at each binder and report its pIC50.
1. LYGVSFSEL (modifications not checked) [HPV16.E1.214]
2. VYQFAFKDL (modifications not checked) [HPV45.E6.44]

Response line:
8.14
8.96
